Source: patent US20060106106A1

targetOrSystem: 5-HT2A (Rattus norvegicus)
Construct: [^3H]myo-inositol-labeled A7r5 rat vascular smooth muscle cells; endogenous in cells; host or cells: A7r5 rat vascular smooth muscle cells
testSummary: 5-HT2 Functional Assay: [Ca2+]i Mobilization (FLIPR) in A7r5 cells
Format: cell-based
conditionParameters: A7r5 cells, FLIPR, percentage of maximum 5-HT-induced response; read-out: 5-HT2A % Emax (Ca+2 Assay)
Structures can show the parent of a compound that is named as a salt.
So I've got a bunch of compounds here, and I need their Emax values.
// units = %; emit number, no label

// Emax lookup, compound = COc1cc(C(O)CN)c(OC)cc1CCCc1ccccc1 (racemic) [Compound 5, Hydrochloride, reference compound] , result: 3.1

Emax in this record for CC[C@H](N)[C@H](O)c1cc(OC)c(Br)cc1OC [Compound 7, reference compound] : 4.8

COc1cc(C(OC)C(C)N)c(OC)cc1Br (single isomer, unassigned; (+)) [Compound 15] yielded Emax of 31

Emax reported for this compound COc1cc([C@@H](OC)[C@H](C)N)c(OC)cc1Br [Compound 12] : 54

The reported Emax of the compound COc1cc([C@@H](O)[C@H](C)N)c(OC)cc1Br [Compound 9] was 22

GET /value?item= COc1ccc(OC)c(C(O)C(C)N)c1 (centres unmarked) [Compound 1, reference compound] &field=Emax returns 9

Data point: COc1cc([C@H](O)[C@@H](C)N)c(OC)cc1Br [Compound 8, Hydrochloride] ; Emax = 20

Just so you know, measured Emax for COc1cc([C@H](OC)[C@@H](C)N)c(OC)cc1Br [Compound 13] came out at 49

* * *

Consider the following molecules; for each one, report its EC50.
targetOrSystem: 5-HT2A (Rattus norvegicus, UniProt P14842)
Construct: [^3H]myo-inositol-labeled A7r5 rat vascular smooth muscle cells; endogenous in cells; host or cells: A7r5 rat vascular smooth muscle cells
Sequence (P14842 whole entry): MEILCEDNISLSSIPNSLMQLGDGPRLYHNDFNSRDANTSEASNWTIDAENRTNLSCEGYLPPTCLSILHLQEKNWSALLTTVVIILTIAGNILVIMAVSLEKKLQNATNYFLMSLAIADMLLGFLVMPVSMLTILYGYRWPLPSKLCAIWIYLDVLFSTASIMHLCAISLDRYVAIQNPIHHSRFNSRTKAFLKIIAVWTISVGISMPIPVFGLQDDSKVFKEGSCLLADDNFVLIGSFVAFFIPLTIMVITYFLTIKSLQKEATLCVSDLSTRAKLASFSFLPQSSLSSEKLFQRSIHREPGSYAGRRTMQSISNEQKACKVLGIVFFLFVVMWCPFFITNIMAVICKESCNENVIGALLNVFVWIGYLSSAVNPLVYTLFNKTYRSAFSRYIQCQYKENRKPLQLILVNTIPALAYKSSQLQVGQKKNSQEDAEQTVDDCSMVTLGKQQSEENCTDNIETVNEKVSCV
testSummary: 5-HT2 Functional Assay: [Ca2+]i Mobilization (FLIPR) in A7r5 cells
Format: cell-based
Where a name gives a salt, the structure may show the parent alone.
API: value field is a number in nM; no unit string.

get_value(item= COc1cc([C@@H](O)[C@H](C)N)c(OC)cc1Br [Compound 9] , readout=EC50) returns 84

Looking up COc1cc([C@H](OC)[C@@H](C)N)c(OC)cc1Br [Compound 13] , I see its EC50 listed as 5040

Short answer for COc1cc(C(OC)C(C)N)c(OC)cc1Br (single isomer, unassigned; (+)) [Compound 15] : EC50 was 1410

The recorded EC50 for entry COc1cc([C@@H](OC)[C@@H](C)N)c(OC)cc1Br [Compound 14] equals 126

# molecule COc1cc([C@@H](O)[C@@H](C)N)c(OC)cc1Br [Compound 11, Hydrochloride] ; its EC50 = 96.9

What the record says about COc1cc([C@@H](OC)[C@H](C)N)c(OC)cc1Br [Compound 12] : EC50 is 1330

* * *

So I've got a bunch of compounds here, and I need their Emax values.
targetOrSystem: 5-HT2A (Rattus norvegicus, UniProt P14842)
Construct: [^3H]myo-inositol-labeled A7r5 rat vascular smooth muscle cells; endogenous in cells; host or cells: A7r5 rat vascular smooth muscle cells
testSummary: 5-HT2 Functional Assay: [Ca2+]i Mobilization (FLIPR) in A7r5 cells
Type: cell-based
conditionParameters: A7r5 cells, FLIPR, percentage of maximum 5-HT-induced response; read-out: 5-HT2A % Emax (Ca+2 Assay)
Counter-ions that a name gives are not always drawn.
Please format your answer as a value with the unit trailing.

GET /value?item= COc1cc(C(O)CN)c(OC)cc1Br (stereo not shown) [Compound 6, reference compound] &field=Emax returns 7.8%

Quick note, Emax for COc1cc([C@@H](O)[C@@H](C)N)c(OC)cc1Br [Compound 11, Hydrochloride] landed at 54%

The compound identified as COc1cc([C@@H](OC)[C@@H](C)N)c(OC)cc1Br [Compound 14] registered its Emax at 93%

// COc1cc(C(O)C(C)N)c(OC)cc1Br (single isomer, unassigned; (+)) [Compound 10, Hydrochloride] : Emax value = 16%
